experiment: Protein binding in rat plasma assessed as free fraction at 5 uM incubated for 18 hrs by LC-MS/MS analysis; format: ADME, cell-free
property name: fraction unbound at 18 h, 5 µM
Answer field: number only, no words.

Some entries whose results are on file:
1. CNC(=O)COc1cc2cc(Nc3nc(N4CCC(O[C@H]5C[C@H](N6CCC(c7ccc8c(c7F)CN(C7CCC(=O)NC7=O)C8=O)CC6)C5)CC4)ncc3Cl)ccc2n(C(C)C)c1=O (some centres not stated)    0.014
2. COc1cc(-c2cn(C)c(=O)c3cnc(N4CCC4)cc23)cc(OC)c1CN1CCC(CN2CCC3(CC2)CN(c2ccc4c(c2)C(=O)N([C@H]2CCC(=O)NC2=O)C4)C3)CC1    0.265
3. NC(=O)c1ncc(N2CCCCC2)nc1Nc1ccc(C2CCN(C[C@@H]3CCN(c4ccc5c(c4)C(=O)N(C4CCC(=O)NC4=O)C5=O)C3)CC2)cc1 (some centres not stated)    0.001
4. CCc1cc(N2C(=S)N(c3ccc(C#N)c(C(F)(F)F)c3)C(=O)C2(C)C)ccc1OCCN1CCN(CC(=O)Nc2cccc(NC3CCC(=O)NC3=O)c2)[C@H](C)C1 (some centres not stated)    0.003
5. CN1CCN([C@@H]2CCCN(c3cnc(C(N)=O)c(Nc4ccc(C5CCN(CC6CCN(c7ccc(C(=O)N[C@H]8CCC(=O)NC8=O)nc7)CC6)CC5)cc4)n3)C2)C1=O    0.073

Let's switch to this compound now.
input: May I ask what fraction unbound at 18 h, 5 µM has been recorded for COc1cc(O[C@H]2C(C)(C)[C@H](NC(=O)c3ccc(N4CCC(CN5CCN(c6ccc(C(=O)N[C@H]7CCC(=O)NC7=O)c(F)c6)CC5)CC4)cc3)C2(C)C)ccc1C#N [LUXDEGALUTAMIDE] ?
output: 0.003

====

experiment: Intrinsic clearance in human hepatocytes measured per million cells at 1 uM measured for 0.5 to 120 mins by LC-MS/MS analysis; type: ADME, cell-based, Hepatocyte; settings: time 0.5-120 min, read-out: CLH
property name: hepatocyte CLint at 1 µM (µL/min/1e6 cells)
Field: numeric (µL/min/1e6 cells). Do not append units.

1) Cc1ncsc1-c1ccc([C@H](C)NC(=O)[C@@H]2C[C@@H](O)CN2C(=O)[C@@H](NC(=O)CCCCCC(=O)N2CCN(CC[C@H](CSc3ccccc3)Nc3ccc(S(=O)(=O)NC(=O)c4ccc(N5CCN(CC6=C(c7ccc(Cl)cc7)CCC(C)(C)C6)CC5)cc4)cc3S(=O)(=O)C(F)(F)F)CC2)C(C)(C)C)cc1 [DT-2216]    3

input: May I ask what hepatocyte CLint at 1 µM has been recorded for N#Cc1ccc(O[C@H]2CC[C@H](NC(=O)c3ccc(N4CCC(CN5CCN(c6cc7c(cc6F)C(=O)N([C@H]6CCC(=O)NC6=O)C7=O)CC5)CC4)nn3)CC2)cc1Cl ?
output: 2

====

test: Protein binding in dog plasma assessed as free fraction at 5 uM incubated for 18 hrs by LC-MS/MS analysis; type: ADME, cell-free, Canis lupus familiaris
Lab note: anything with fraction unbound at 18 h, 5 µM at or over 0.003 counts as 1.0; the rest go in 0.0.

1. O=C1CC[C@H](N2Cc3cc(N4CCN(CC5CCN(c6ccc([C@@H]7c8ccc(O)cc8CC[C@@H]7c7ccccc7)cc6)CC5)CC4)ccc3C2=O)C(=O)N1    0.0
2. CCc1cc(N2C(=S)N(c3ccc(C#N)c(C(F)(F)F)c3)C(=O)C2(C)C)ccc1OCCN1CCN(CC(=O)Nc2cccc(NC3CCC(=O)NC3=O)c2)[C@H](C)C1 (stereo partly drawn)    0.0
3. CN1CCN([C@@H]2CCCN(c3cnc(C(N)=O)c(Nc4ccc(C5CCN(CC6CCN(c7ccc(C(=O)N[C@H]8CCC(=O)NC8=O)nc7)CC6)CC5)cc4)n3)C2)C1=O    1.0
4. Cn1c(=O)n([C@H]2CCC(=O)NC2=O)c2cccc(C#CCOC3CCN(C[C@H]4CC[C@H](n5cc(NC(=O)c6cnn7ccc(N8C[C@H]9C[C@@H]8CO9)nc67)c(C(F)F)n5)CC4)CC3)c21    1.0
5. CNC(=O)COc1cc2cc(Nc3nc(N4CCC(O[C@H]5C[C@H](N6CCC(c7ccc8c(c7F)CN(C7CCC(=O)NC7=O)C8=O)CC6)C5)CC4)ncc3Cl)ccc2n(C(C)C)c1=O (stereo partly drawn)    0.0

input: Test whether the compound COc1cc(-c2cn(C)c(=O)c3cnc(N4CCC4)cc23)cc(OC)c1CN1CCC(CN2CCC3(CC2)CN(c2ccc4c(c2)C(=O)N([C@H]2CCC(=O)NC2=O)C4)C3)CC1 records fraction unbound at 18 h, 5 µM of 0.003 or higher.
output: 1.0

input: Test whether the compound NC(=O)c1ncc(N2CCCCC2)nc1Nc1ccc(C2CCN(C[C@@H]3CCN(c4ccc5c(c4)C(=O)N(C4CCC(=O)NC4=O)C5=O)C3)CC2)cc1 (stereo partly drawn) records fraction unbound at 18 h, 5 µM of 0.003 or higher.
output: 0.0

====

assay: Protein binding in rat hepatocytes assessed as free fraction at 5 uM incubated for 18 hrs by LC-MS/MS analysis; type: ADME, cell-based, Hepatocyte
Recorded fraction unbound at 18 h, 5 µM, one value per entry.
Answer field: number only, no words.

Some entries whose results are on file:
1. CN1CCN([C@@H]2CCCN(c3cnc(C(N)=O)c(Nc4ccc(C5CCN(CC6CCN(c7ccc(C(=O)N[C@H]8CCC(=O)NC8=O)nc7)CC6)CC5)cc4)n3)C2)C1=O    0.178
2. N#Cc1ccc(O[C@H]2CC[C@H](NC(=O)c3ccc(N4CCC(CN5CCN(c6cc7c(cc6F)C(=O)N([C@H]6CCC(=O)NC6=O)C7=O)CC5)CC4)nn3)CC2)cc1Cl    0.008
3. NC(=O)c1ncc(N2CCCCC2)nc1Nc1ccc(C2CCN(C[C@@H]3CCN(c4ccc5c(c4)C(=O)N(C4CCC(=O)NC4=O)C5=O)C3)CC2)cc1 (stereo not given in full)    0.003

Let's switch to this compound now.
input: May I ask what fraction unbound at 18 h, 5 µM has been recorded for Cn1c(=O)n([C@H]2CCC(=O)NC2=O)c2cccc(C#CCOC3CCN(C[C@H]4CC[C@H](n5cc(NC(=O)c6cnn7ccc(N8C[C@H]9C[C@@H]8CO9)nc67)c(C(F)F)n5)CC4)CC3)c21 ?
output: 0.069

====

assay: Intrinsic clearance in rat hepatocytes measured per million cells at 1 uM measured for 0.5 to 120 mins by LC-MS/MS analysis; type: ADME, cell-based, Hepatocyte; conditions: time 0.5-120 min, read-out: CLH
property name: hepatocyte CLint at 1 µM (µL/min/1e6 cells)
Field: numeric (µL/min/1e6 cells). Do not append units.

1. CNC(=O)COc1cc2cc(Nc3nc(N4CCC(O[C@H]5C[C@H](N6CCC(c7ccc8c(c7F)CN(C7CCC(=O)NC7=O)C8=O)CC6)C5)CC4)ncc3Cl)ccc2n(C(C)C)c1=O (stereo not given in full)    5
2. O=C1CC[C@H](N2Cc3cc(N4CCN(CC5CCN(c6ccc([C@@H]7c8ccc(O)cc8CC[C@@H]7c7ccccc7)cc6)CC5)CC4)ccc3C2=O)C(=O)N1 [VEPDEGESTRANT]    9
3. CN1CCN([C@@H]2CCCN(c3cnc(C(N)=O)c(Nc4ccc(C5CCN(CC6CCN(c7ccc(C(=O)N[C@H]8CCC(=O)NC8=O)nc7)CC6)CC5)cc4)n3)C2)C1=O [NX-5948]    3

input: May I ask what hepatocyte CLint at 1 µM has been recorded for Cc1ncsc1-c1ccc([C@H](C)NC(=O)[C@@H]2C[C@@H](O)CN2C(=O)[C@@H](NC(=O)CCCCCC(=O)N2CCN(CC[C@H](CSc3ccccc3)Nc3ccc(S(=O)(=O)NC(=O)c4ccc(N5CCN(CC6=C(c7ccc(Cl)cc7)CCC(C)(C)C6)CC5)cc4)cc3S(=O)(=O)C(F)(F)F)CC2)C(C)(C)C)cc1 [DT-2216] ?
output: 3

====

assay: Lipophilicity, LogD of compound by Chromatography; format: physicochemical
Labelling: chromatographic logD reported below 5 becomes yes (1); at or above becomes no (0).

As a guide, the following entries are already answered.
1) CNC(=O)COc1cc2cc(Nc3nc(N4CCC(O[C@H]5C[C@H](N6CCC(c7ccc8c(c7F)CN(C7CCC(=O)NC7=O)C8=O)CC6)C5)CC4)ncc3Cl)ccc2n(C(C)C)c1=O (stereo not given in full)    yes (1)
2) Cc1ncsc1-c1ccc([C@H](C)NC(=O)[C@@H]2C[C@@H](O)CN2C(=O)[C@@H](NC(=O)CCCCCC(=O)N2CCN(CC[C@H](CSc3ccccc3)Nc3ccc(S(=O)(=O)NC(=O)c4ccc(N5CCN(CC6=C(c7ccc(Cl)cc7)CCC(C)(C)C6)CC5)cc4)cc3S(=O)(=O)C(F)(F)F)CC2)C(C)(C)C)cc1 [DT-2216]    no (0)
3) COc1cc(O[C@H]2C(C)(C)[C@H](NC(=O)c3ccc(N4CCC(CN5CCN(c6ccc(C(=O)N[C@H]7CCC(=O)NC7=O)c(F)c6)CC5)CC4)cc3)C2(C)C)ccc1C#N [LUXDEGALUTAMIDE]    no (0)

Turning to the following compound.
input: Determine whether this compound shows chromatographic logD lower than 5 (ties excluded): Cn1c(=O)n([C@H]2CCC(=O)NC2=O)c2cccc(C#CCOC3CCN(C[C@H]4CC[C@H](n5cc(NC(=O)c6cnn7ccc(N8C[C@H]9C[C@@H]8CO9)nc67)c(C(F)F)n5)CC4)CC3)c21
output: yes (1)
